Quick note: these are pIC50 numbers for system: UniProt:P06276
Sequence (P06276 whole entry): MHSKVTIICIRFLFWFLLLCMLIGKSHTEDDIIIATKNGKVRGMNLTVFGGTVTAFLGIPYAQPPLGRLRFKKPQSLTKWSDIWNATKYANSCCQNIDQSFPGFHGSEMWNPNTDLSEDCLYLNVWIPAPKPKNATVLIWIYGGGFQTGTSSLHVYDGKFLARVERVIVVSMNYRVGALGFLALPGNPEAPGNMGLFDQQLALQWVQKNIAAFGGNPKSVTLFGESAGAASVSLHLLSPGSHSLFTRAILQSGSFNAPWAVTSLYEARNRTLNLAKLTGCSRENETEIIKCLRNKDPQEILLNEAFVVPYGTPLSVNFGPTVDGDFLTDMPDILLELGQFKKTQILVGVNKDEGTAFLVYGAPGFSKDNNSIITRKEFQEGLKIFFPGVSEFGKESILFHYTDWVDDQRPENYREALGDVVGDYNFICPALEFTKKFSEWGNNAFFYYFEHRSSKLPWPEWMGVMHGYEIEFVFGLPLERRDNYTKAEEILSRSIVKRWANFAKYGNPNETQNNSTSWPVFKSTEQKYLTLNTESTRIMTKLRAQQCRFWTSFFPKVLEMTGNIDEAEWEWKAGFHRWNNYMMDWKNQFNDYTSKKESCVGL
Lab note: report pIC50 as minus log10 of the concentration in molar units, number only.

Some entries whose results are on file:
CCOc1ccc(Cc2nc3cc(C(=O)N(CC)CC)ccc3n2CCCCN2CCCCC2)cc1    5.57
CCOc1ccc(Cc2nc3cc(C(=O)N(CC)CC)ccc3n2CCCCCCN2CCCCC2)cc1    5.09
CCOc1ccc(Cc2nc3cc(C(=O)Nc4ccccc4)ccc3n2CCC(C)C)cc1    5.92
CCCCCCNC(=O)c1ccc2c(c1)nc(Cc1ccc(OCC)cc1)n2CCC(C)C    5.28
CCOc1ccc(Cc2nc3cc(C(=O)N4CCCCC4)ccc3n2CCC(C)C)cc1    5.24

Could you now consider this next molecule?
Enquiry: What pIC50 appears in the records for this molecule with UniProt:P06276? CCOc1ccc(Nc2nc3cc(C(=O)N(CC)CC)ccc3n2CCN2CCCCC2)cc1
Return: 4.27
